- MEASUREMENT_TARGET: acetylcholine receptor
- TEST_DETAILS: SPR, AchR immobilised on CM5 chip, peptide 10 uM
READOUT: Binding affinity (RU)

Here are 10 binders together with their reported answers.
RKPTAK [6mer-1-1064] :: 41
RRTEDR [6mer-1-967] :: 24
KAEMRR [6mer-2-794] :: 19
KMSMKK [6mer-2-775] :: 26
RRNSWK [6mer-1-966] :: 22
RKIEMK [6mer-1-971] :: 32
RKTPKK [6mer-1-941] :: 29
RNTPKR [6mer-2-602] :: 24
RTWKRK [6mer-2-707] :: 21
RNKKKK [6mer-2-710] :: 14

a = KHCHRR [6mer-2-734]
b = RKATDK [6mer-1-1047]
When the recorded Binding affinity (RU) values are compared, which is smaller: that of a or that of b ? Choose, then provide that item's label.
a
(a: 17 RU, b: 30 RU)
